All figures here come from patent US9670147B2.

Provide the recorded inhibition at 0.3 µM for the entries that follow.
- Test system: iNOS
- experimental details: iNOS Western blot in RAW264.7 mouse macrophages
- Format: cell-based
- run conditions: compounds at 300 nM for 2 hours, 24 hour induction by IFNγ, read-out: iNOS suppr. WB

Before answering, review these 2 worked examples.
Look up inhibition at 0.3 µM for this molecule: CC1(C)CC[C@]2(NC(=O)N3CCC(O)CC3)CC[C@]3(C)[C@H](C(=O)C=C4[C@@]5(C)C=C(C#N)C(=O)C(C)(C)[C@@H]5CC[C@]43C)[C@@H]2C1 [Compound 63185] 0%

Query CC1(C)CC[C@]2(NS(=O)(=O)c3cccs3)CC[C@]3(C)[C@H](C(=O)C=C4[C@@]5(C)C=C(C#N)C(=O)C(C)(C)[C@@H]5CC[C@]43C)[C@@H]2C1 [Compound 63187] next > 90%

Could you now consider this next molecule?
Look up inhibition at 0.3 µM for this molecule: CC1(C)CC[C@]2(NS(=O)(=O)CC(F)(F)F)CC[C@]3(C)[C@H](C(=O)C=C4[C@@]5(C)C=C(C#N)C(=O)C(C)(C)[C@@H]5CC[C@]43C)[C@@H]2C1 [Compound 63247] > 90%
